System: DU-145
Experiment: Growth inhibition of human DU145 cells at 100 uM by MTT assay relative to control
Type: functional
Settings: read-out: GI
Reported inhibition of growth at 100 µM values are given for each entry in this list.

See these solved cases before continuing.
[[record]]
smiles_code = "COc1cc2ncnc(Nc3cc(-c4ccccc4)[nH]n3)c2cc1OC"
measure = "inhibition of growth at 100 µM"
assay_value = "> 50%"

[[record]]
smiles_code = "COc1ccc(-c2cc(Nc3ncnc4cc(OC)c(OC)cc34)n[nH]2)cc1"
measure = "inhibition of growth at 100 µM"
assay_value = "> 50%"

[[record]]
smiles_code = "COc1cc2ncnc(Nc3cc(O)[nH]n3)c2cc1OC"
measure = "inhibition of growth at 100 µM"
assay_value = "> 50%"

[[record]]
smiles_code = "COc1cc2ncnc(Nc3cc(-c4ccc(Cl)cc4)[nH]n3)c2cc1OC"
measure = "inhibition of growth at 100 µM"
assay_value = "> 50%"

[[record]]
smiles_code = "COc1cc2ncnc(Nc3n[nH]cc3C#N)c2cc1OC"
measure = "inhibition of growth at 100 µM"
assay_value = "> 50%"

[[record]]
smiles_code = "COc1cc2ncnc(Nc3cc(-c4ccccc4)n(-c4ccccc4)n3)c2cc1OC"
measure = "inhibition of growth at 100 µM"
assay_value = "> 50%"


// moving on: another record for inhibition of growth at 100 µM
q: Query (molecule): COc1cc2ncnc(Nc3cc(-c4ccc(F)cc4)[nH]n3)c2cc1OC ; field requested: inhibition of growth at 100 µM
a: > 50%

====

Test system: Asteroidea
Experiment: Inhibition of M-phase starfish oocytes CDK1/cyclin B at 10 uM using histone H1 as substrate after 30 mins in presence of ATP by scintillation counting method relative to control
Below, each of the compounds is paired with its reported inhibition value.

Known inhibition results, listed for orientation:
[[record]]
smiles_code = "COc1cc2ncnc(Nc3cc(O)[nH]n3)c2cc1OC"
measure = "inhibition"
assay_value = "> 50%"

[[record]]
smiles_code = "COc1cc2ncnc(Nc3cc(-c4ccccc4)n(-c4ccccc4)n3)c2cc1OC"
measure = "inhibition"
assay_value = "> 50%"

[[record]]
smiles_code = "COc1cc2ncnc(Nc3cc(-c4ccccc4)[nH]n3)c2cc1OC"
measure = "inhibition"
assay_value = "> 50%"

[[record]]
smiles_code = "COc1ccc(-c2cc(Nc3ncnc4cc(OC)c(OC)cc34)n[nH]2)cc1"
measure = "inhibition"
assay_value = "> 50%"


q: # inhibition lookup, item COc1cc2ncnc(Nc3cc(-c4ccc(F)cc4)[nH]n3)c2cc1OC
a: > 50%

q: Request the reported inhibition associated with COc1cc2ncnc(Nc3n[nH]cc3C#N)c2cc1OC
a: > 50%

q: I am curious: what inhibition value has been reported for COc1cc2ncnc(Nc3cc(-c4ccc(Cl)cc4)[nH]n3)c2cc1OC ?
a: > 50%

====

Test system: HCT-15
Test: Cytotoxicity against human HCT15 cells by MTT assay
Type: functional, cell-based
pIC50: −log10 of the molar value.
measure: pIC50

# example entries with known answers
[[record]]
smiles_code = "COc1ccc(-c2cc(Nc3ncnc4cc(OC)c(OC)cc34)n[nH]2)cc1"
measure = "pIC50"
assay_value = "> 4.00"

[[record]]
smiles_code = "COc1cc2ncnc(Nc3cc(-c4ccccc4)n(-c4ccccc4)n3)c2cc1OC"
measure = "pIC50"
assay_value = "> 4.00"

[[record]]
smiles_code = "COc1cc2ncnc(Nc3cc(-c4ccccc4)[nH]n3)c2cc1OC"
measure = "pIC50"
assay_value = "< 4.00"

[[record]]
smiles_code = "COc1cc2ncnc(Nc3cc(O)[nH]n3)c2cc1OC"
measure = "pIC50"
assay_value = "< 4.00"

[[record]]
smiles_code = "COc1cc2ncnc(Nc3n[nH]cc3C#N)c2cc1OC"
measure = "pIC50"
assay_value = "< 4.00"


q: Provide value of pIC50 for this record tested with HCT-15: COc1cc2ncnc(Nc3cc(-c4ccc(F)cc4)[nH]n3)c2cc1OC
a: < 4.00

q: Report pIC50 for COc1cc2ncnc(Nc3cc(-c4ccc(Cl)cc4)[nH]n3)c2cc1OC tested on HCT-15.
a: 4.01
